These measurements were taken from the SangsterLogP compilation.

Each item that follows carries a reported logP.
assay: method code SF, from DOI: 10.1002/qsar.19830020303
// no unit string in output, number only

NS(=O)(=O)c1ccc2ncccc2c1
0.56
Nc1ccc(Cl)nn1
0.35

Endpoint output: logP of CS(=O)(=O)c1ccc2ncccc2c1 . Value?
0.7

Consider next the compound CC(=O)Nc1ncccn1 in the same way.
-0.75

Consider next the compound CN(C)c1ccnnc1 in the same way.
-0.09

====

Each item that follows carries a reported logP.
test: method code SF, from DOI: 10.1002/qsar.19830020303

CC(=O)Nc1ccncc1
0.5
Cc1cc(N)ncn1
0.19
Cc1cc(NN)ncn1
0.62

# evaluate next
Endpoint output: logP of NC(=S)c1ncccn1 . Value?
-0.34
